- measurementTarget: mouse TRPM3α2 (mTRPM3) ion channel (Mus musculus (Mouse))
- Sequence (J9SQF3 other isoform, or with tags, fused parts or gaps): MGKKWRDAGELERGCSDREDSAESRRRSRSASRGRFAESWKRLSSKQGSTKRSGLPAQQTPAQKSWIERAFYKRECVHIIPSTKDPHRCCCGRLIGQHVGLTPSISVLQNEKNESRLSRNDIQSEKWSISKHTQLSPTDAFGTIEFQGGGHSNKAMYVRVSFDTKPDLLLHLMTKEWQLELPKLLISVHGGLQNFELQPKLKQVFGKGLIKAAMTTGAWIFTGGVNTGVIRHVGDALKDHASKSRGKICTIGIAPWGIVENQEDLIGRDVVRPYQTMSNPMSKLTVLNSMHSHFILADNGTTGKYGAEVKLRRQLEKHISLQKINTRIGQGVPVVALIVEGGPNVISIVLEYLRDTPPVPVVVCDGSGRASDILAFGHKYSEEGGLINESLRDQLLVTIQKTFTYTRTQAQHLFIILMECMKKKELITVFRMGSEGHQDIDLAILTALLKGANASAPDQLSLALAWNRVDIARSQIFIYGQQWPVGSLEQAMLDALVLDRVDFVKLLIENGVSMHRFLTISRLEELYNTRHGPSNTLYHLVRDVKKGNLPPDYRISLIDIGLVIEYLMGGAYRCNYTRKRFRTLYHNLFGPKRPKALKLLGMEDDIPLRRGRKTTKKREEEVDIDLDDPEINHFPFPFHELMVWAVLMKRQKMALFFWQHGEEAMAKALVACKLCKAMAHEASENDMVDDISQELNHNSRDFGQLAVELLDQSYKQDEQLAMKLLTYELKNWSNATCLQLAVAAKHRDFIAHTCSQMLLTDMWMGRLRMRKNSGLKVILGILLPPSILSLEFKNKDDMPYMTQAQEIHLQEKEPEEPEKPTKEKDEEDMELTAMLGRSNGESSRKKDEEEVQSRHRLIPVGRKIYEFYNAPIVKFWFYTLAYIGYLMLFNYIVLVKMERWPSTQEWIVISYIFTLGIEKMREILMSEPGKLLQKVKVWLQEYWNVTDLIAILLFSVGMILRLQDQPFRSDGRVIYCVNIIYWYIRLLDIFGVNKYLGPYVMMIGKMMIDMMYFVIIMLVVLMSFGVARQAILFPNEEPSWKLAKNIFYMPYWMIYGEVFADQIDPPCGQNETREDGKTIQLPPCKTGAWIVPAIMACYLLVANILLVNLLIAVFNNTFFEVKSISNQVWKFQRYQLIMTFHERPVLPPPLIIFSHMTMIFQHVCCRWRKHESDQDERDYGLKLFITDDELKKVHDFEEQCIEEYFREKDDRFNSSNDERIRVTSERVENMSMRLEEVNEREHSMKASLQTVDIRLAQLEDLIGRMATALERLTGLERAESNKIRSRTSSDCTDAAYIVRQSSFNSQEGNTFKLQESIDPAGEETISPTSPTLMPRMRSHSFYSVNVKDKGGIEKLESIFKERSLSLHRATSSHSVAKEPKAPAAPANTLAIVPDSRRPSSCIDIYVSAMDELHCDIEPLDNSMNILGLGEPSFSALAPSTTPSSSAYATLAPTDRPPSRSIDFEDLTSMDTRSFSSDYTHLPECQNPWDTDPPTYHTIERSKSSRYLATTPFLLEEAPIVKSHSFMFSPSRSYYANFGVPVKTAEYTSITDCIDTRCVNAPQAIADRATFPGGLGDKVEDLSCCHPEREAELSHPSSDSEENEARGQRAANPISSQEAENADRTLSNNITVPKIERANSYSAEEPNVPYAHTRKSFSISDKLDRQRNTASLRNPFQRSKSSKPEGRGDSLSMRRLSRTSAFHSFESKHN
- experiment: TRPM3 ion channel driven Ca2+ uptake, Fluo-4 AM assay, mTRPM3alpha2 overexpressing flip-in HEK293 cells stimulated with pregnenolone sulfate
- Type: cell-based
- conditionInfo: PS 50 μM, cpds 300-399
This section presents molecules with their documented IC50 values.

The examples below pair each entry with its known result.
[
  {
    "molecule": "Cc1ncsc1COc1ccc2oc(C(F)F)c(C(=O)NC3CCNCC3(F)F)c2c1 (single isomer, unassigned) [cpd 310-En 2]",
    "measurementTarget": "mouse TRPM3α2 (mTRPM3) ion channel (Mus musculus (Mouse))",
    "IC50": "< 1 µM"
  },
  {
    "molecule": "COc1ncccc1COc1ccc2oc(C)c(C(=O)NC3(CO)CCOCC3)c2c1F",
    "measurementTarget": "mouse TRPM3α2 (mTRPM3) ion channel (Mus musculus (Mouse))",
    "IC50": "< 1 µM"
  },
  {
    "molecule": "Cc1ncsc1COc1ccc2oc(C)c(C(=O)NCC3(F)COC3)c2c1",
    "measurementTarget": "mouse TRPM3α2 (mTRPM3) ion channel (Mus musculus (Mouse))",
    "IC50": "< 1 µM"
  },
  {
    "molecule": "Cc1ncccc1COc1ccc2oc(C)c(C(=O)N[C@H](C(N)=O)[C@@H](C)O)c2c1",
    "measurementTarget": "mouse TRPM3α2 (mTRPM3) ion channel (Mus musculus (Mouse))",
    "IC50": "< 1 µM"
  }
]

Problem: Recorded IC50 of Cc1ncsc1COc1ccc2oc(C)c(C(=O)NC(CO)C(F)(F)F)c2c1 (single isomer, unassigned) , please.
Result: < 1 µM

Problem: Recorded IC50 of `Cc1oc2ccc(OCc3ccnn3CC(F)F)cc2c1C(=O)NC1(CO)CCOCC1` , please.
Result: < 1 µM

Problem: Recorded IC50 of `Cc1ncsc1COc1ccc2oc(C)c(C(=O)NC(C)(C)C(=O)NCCO)c2c1` , please.
Result: < 1 µM

Problem: Recorded IC50 of `Cc1oc2ccc(OCc3ncccc3F)cc2c1C(=O)NC1(CO)CCOCC1` , please.
Result: < 1 µM
